assaySystem: Glutamate NMDA receptor
assayComment: In vitro inhibition of binding of [3H]MDL-105519 towards glycine binding site of NMDA receptor in rat
Recorded measurements of IC50, one per entry
Use nM as the unit, but write only the number.

Examples with answers:
[
  {
    "molecule": "O=C(O)COCc1cc([N+](=O)[O-])cc2nc(O)c(O)nc12",
    "assaySystem": "Glutamate NMDA receptor",
    "scaleUnit": "nM",
    "IC50": 310
  },
  {
    "molecule": "O=C(O)CCCNCc1cc([N+](=O)[O-])cc2nc(O)c(O)nc12",
    "assaySystem": "Glutamate NMDA receptor",
    "scaleUnit": "nM",
    "IC50": 9000
  },
  {
    "molecule": "CCN(Cc1cc(C(F)(F)F)cc2nc(O)c(O)nc12)[C@@H](C)P(=O)(O)O",
    "assaySystem": "Glutamate NMDA receptor",
    "scaleUnit": "nM",
    "IC50": 4000
  },
  {
    "molecule": "C[C@@H](NCc1cc(C(F)(F)F)cc2[nH]c(=O)c(=O)[nH]c12)P(=O)(O)O",
    "assaySystem": "Glutamate NMDA receptor",
    "scaleUnit": "nM",
    "IC50": 6
  },
  {
    "molecule": "C[C@@H](NCc1cc([N+](=O)[O-])cc2[nH]c(=O)c(=O)[nH]c12)[P+]([O-])(O)O",
    "assaySystem": "Glutamate NMDA receptor",
    "scaleUnit": "nM",
    "IC50": 32
  },
  {
    "molecule": "Br.O=C(O)CNCc1cc(Br)cc2nc(O)c(O)nc12",
    "assaySystem": "Glutamate NMDA receptor",
    "scaleUnit": "nM",
    "IC50": 40
  },
  {
    "molecule": "NCc1ccc(NC(=O)C[C@@H]2CCc3cc(Cl)cc4[nH]c(=O)c(=O)n2c34)c(OCC(=O)O)c1",
    "assaySystem": "Glutamate NMDA receptor",
    "scaleUnit": "nM",
    "IC50": 500
  },
  {
    "molecule": "CCC(NCc1cc(Br)cc2nc(O)c(O)nc12)P(=O)(O)O (configuration not stated)",
    "assaySystem": "Glutamate NMDA receptor",
    "scaleUnit": "nM",
    "IC50": 45
  }
]

Prompt line: Form entry - test system: Glutamate NMDA receptor; read-out: IC50; molecule: Br.C[C@@H](NCc1cc([N+](=O)[O-])cc2nc(O)c(O)nc12)C(=O)O
Response line: 1300

Prompt line: Form entry - test system: Glutamate NMDA receptor; read-out: IC50; molecule: O=C(O)COCc1cc(Br)cc2nc(O)c(O)nc12
Response line: 110

Prompt line: Form entry - test system: Glutamate NMDA receptor; read-out: IC50; molecule: C[C@H](NCc1cc(C(F)(F)F)cc2nc(O)c(O)nc12)P(=O)(O)O
Response line: 590

Ref: ChEMBL document CHEMBL1132024
